The values you see were collected from patent US11319324B2.

Please provide measured hP2X23/hP2X3* Selectivity (1321N1) for the entries that follow.
# system: human P2X2/3 receptors (Homo sapiens, UniProt P56373+Q9UBL9)
# Construct: expressed in transfected cells; host or cells: human astrocytoma 1321N1 (1312N1 [sic])
# Sequence (P56373 1-397): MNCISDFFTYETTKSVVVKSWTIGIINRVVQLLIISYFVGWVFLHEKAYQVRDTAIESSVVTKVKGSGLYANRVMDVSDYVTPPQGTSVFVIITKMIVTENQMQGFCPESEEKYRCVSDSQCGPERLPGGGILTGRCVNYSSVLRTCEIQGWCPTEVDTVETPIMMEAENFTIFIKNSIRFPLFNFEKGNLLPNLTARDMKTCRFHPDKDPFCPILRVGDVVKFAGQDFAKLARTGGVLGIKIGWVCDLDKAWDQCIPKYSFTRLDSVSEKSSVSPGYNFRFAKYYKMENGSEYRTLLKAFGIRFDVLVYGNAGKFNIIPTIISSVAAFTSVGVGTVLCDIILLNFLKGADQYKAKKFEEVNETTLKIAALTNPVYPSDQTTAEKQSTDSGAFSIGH
# Sequence (Q9UBL9 1-471): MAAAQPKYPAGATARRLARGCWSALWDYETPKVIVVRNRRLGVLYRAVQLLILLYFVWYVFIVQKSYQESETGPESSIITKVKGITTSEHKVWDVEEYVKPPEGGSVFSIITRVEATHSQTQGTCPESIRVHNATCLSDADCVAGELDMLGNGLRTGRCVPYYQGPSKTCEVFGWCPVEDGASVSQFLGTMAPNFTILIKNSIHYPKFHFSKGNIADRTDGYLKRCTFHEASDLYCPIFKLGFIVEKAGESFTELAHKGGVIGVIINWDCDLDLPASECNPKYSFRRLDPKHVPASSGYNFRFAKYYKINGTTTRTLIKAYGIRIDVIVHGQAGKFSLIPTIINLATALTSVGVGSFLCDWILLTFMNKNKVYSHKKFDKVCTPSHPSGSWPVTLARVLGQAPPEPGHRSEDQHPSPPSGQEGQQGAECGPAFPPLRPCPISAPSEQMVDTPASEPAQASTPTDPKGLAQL
# assay_procedure: Intracellular calcium measurement, antagonist activity at human P2X2/3 receptors (hP2X23 1321N1), Fluo8
# Assay type: cell-based
# conditions: ratio of column 4) hP2X2/3 to column 3) hP2X3, 1321N1
In your answer, state the number alone without any accompanying words.

Given the molecule `CC(C)(O)CN1Cc2c(n(CC(=O)Nc3ccc(F)cn3)c3cc(C(C)(C)C)nn3c2=O)C1=O` , write its reported hP2X23/hP2X3* Selectivity (1321N1).
71

Given the molecule CCc1cc2n(CC(=O)Nc3ccc(F)cn3)c3c(c(=O)n2n1)CN(CC1CCCO1)C3=O (racemic) , write its reported hP2X23/hP2X3* Selectivity (1321N1).
49

Given the molecule `CC(C)(C)c1cc2n(CC(=O)Nc3ccc(F)cn3)c3c(c(=O)n2n1)CN(CC1CC1)C3=O` , write its reported hP2X23/hP2X3* Selectivity (1321N1).
212

Given the molecule `CC(C)c1cc2n(CC(=O)Nc3ccc(F)cn3)c3c(c(=O)n2n1)CN(C(C)C)C3=O` , write its reported hP2X23/hP2X3* Selectivity (1321N1).
167

Given the molecule `CC(=O)N1CCC(c2cc3n(CC(=O)Nc4ccc(F)cn4)c4c(c(=O)n3n2)CN(C(C)C)C4=O)CC1` , write its reported hP2X23/hP2X3* Selectivity (1321N1).
191

Given the molecule `CC(C)(C)c1cc2n(CC(=O)Nc3ccc(Cl)cn3)c3c(c(=O)n2n1)CN(C1COC1)C3=O` , write its reported hP2X23/hP2X3* Selectivity (1321N1).
31

Given the molecule `CC(C)Cc1cc2n(CC(=O)Nc3ccc(F)cn3)c3c(c(=O)n2n1)CN(C(C)C)C3=O` , write its reported hP2X23/hP2X3* Selectivity (1321N1).
239

Given the molecule `CC(C)N1Cc2c(n(CC(=O)Nc3ccc(F)cn3)c3cc(C4=CCN(C(=O)OC(C)(C)C)CC4)nn3c2=O)C1=O` , write its reported hP2X23/hP2X3* Selectivity (1321N1).
197

Given the molecule `CCc1cc2n(CC(=O)Nc3ccc(F)cn3)c3c(c(=O)n2n1)CN(C[C@H]1CN(CCC(F)(F)F)CCO1)C3=O` , write its reported hP2X23/hP2X3* Selectivity (1321N1).
16

Given the molecule `CC(C)N1Cc2c(n(CC(=O)Nc3ccc(F)cn3)c3cc(C4CCN(C(=O)OC(C)(C)C)CC4)nn3c2=O)C1=O` , write its reported hP2X23/hP2X3* Selectivity (1321N1).
132

Given the molecule `Cc1cc(C)c(-c2cc3n(CC(=O)Nc4ccc(F)cn4)c4c(c(=O)n3n2)CN(C(C)C)C4=O)cn1` , write its reported hP2X23/hP2X3* Selectivity (1321N1).
78
